assay.summary: Clearance in rat
Format: ADME
condition.summary: in vivo
endpoint: clearance (mL/min/kg)
One number for each entry, in mL/min/kg.

// lookup clearance for `N#Cc1ccc2ncnc(N[C@H]3CC[C@H](N4CCOCC4)CC3)c2c1`
22

====

experimental.target: Interleukin-1 receptor-associated kinase 4 (Homo sapiens) (UniProt Q9NWZ3)
Sequence (Q9NWZ3 whole entry): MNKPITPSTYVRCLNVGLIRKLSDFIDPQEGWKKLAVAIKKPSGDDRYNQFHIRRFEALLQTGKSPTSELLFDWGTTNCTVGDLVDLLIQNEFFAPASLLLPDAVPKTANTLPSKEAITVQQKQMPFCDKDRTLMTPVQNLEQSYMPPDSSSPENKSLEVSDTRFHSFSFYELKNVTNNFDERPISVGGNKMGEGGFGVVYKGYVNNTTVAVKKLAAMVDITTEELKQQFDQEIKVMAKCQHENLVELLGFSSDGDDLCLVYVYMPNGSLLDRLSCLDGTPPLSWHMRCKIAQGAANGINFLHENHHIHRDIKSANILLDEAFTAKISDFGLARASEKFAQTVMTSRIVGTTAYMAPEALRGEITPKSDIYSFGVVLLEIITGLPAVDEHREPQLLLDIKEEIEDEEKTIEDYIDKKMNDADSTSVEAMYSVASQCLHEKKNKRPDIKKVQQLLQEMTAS
assay.summary: Inhibition of IRAK4 in human whole blood assessed as reduction in R848-stimulated TNF alpha production preincubated for 30 mins followed by R848 addition measured after 5 hrs
endpoint: IC50 (nM)
Give bare numbers, in nM.

// lookup IC50 for `N#Cc1ccc2ncnc(N[C@H]3CC[C@H](N4CCCC4)CC3)c2c1`
300

// lookup IC50 for `N#Cc1ccc2ncnc(N[C@H]3CC[C@H](N4CCOCC4)CC3)c2c1`
300

// lookup IC50 for `COc1ccc2ncnc(N[C@H]3CC[C@H](N(C)C)CC3)c2c1`
1100

// lookup IC50 for `CN(C)[C@H]1CC[C@H](Nc2ncnc3ccc(C4CC4)cc23)CC1`
2500

// lookup IC50 for `CS(=O)(=O)N1CCN([C@H]2CC[C@H](Nc3ncnc4ccc(C#N)cc34)CC2)CC1`
330

# map each compound to its IC50
1. CN(C)[C@H]1CC[C@H](Nc2ncnc3ccc(C(F)(F)F)cc23)CC1
2. CN(C)[C@H]1CC[C@H](Nc2ncnc3ccc(C#N)cc23)CC1
3. Cc1ccc2ncnc(N[C@H]3CC[C@H](N(C)C)CC3)c2c1
4. N#Cc1ccc2ncnc(N[C@H]3CC[C@H](N4CCC4)CC3)c2c1
5. CC(C)c1ccc2ncnc(N[C@H]3CC[C@H](N(C)C)CC3)c2c1

[620, 770, 1800, 620, 1100]

# map each compound to its IC50
1. N#Cc1ccc2ncnc(N[C@H]3CC[C@H](N4CCC(F)(F)CC4)CC3)c2c1
2. N#Cc1ccc2ncnc(N[C@H]3CC[C@H](N4CCC(F)CC4)CC3)c2c1
3. N#Cc1ccc2ncnc(N[C@H]3CC[C@H](N)CC3)c2c1
4. CN(C)[C@H]1CC[C@H](Nc2ncnc3ccc(Br)cc23)CC1
5. CCc1ccc2ncnc(N[C@H]3CC[C@H](N(C)C)CC3)c2c1
6. CN1CCN([C@H]2CC[C@H](Nc3ncnc4ccc(C#N)cc34)CC2)CC1

1: 200; 2: 100; 3: 1400; 4: 290; 5: 1200; 6: 274

// lookup IC50 for `CN(C)[C@H]1CC[C@H](Oc2ncnc3ccc([N+](=O)[O-])cc23)CC1`
2000
